target: Chromo domain-containing protein 1 (Saccharomyces cerevisiae (strain ATCC 204508 / S288c) (Baker's yeast))
test_description: ScCHD-1 Enzyme Inhibition Assay
Type: functional
Design: scale not given: in the data most compounds retested in dose-response had high values
condition_set: 30 µM
parameter_measured: Percent Effect (%)
The answer is to be given in %; state only the numeric part.

As a guide, the following entries are already answered.
CNc1cncc(C2CCCN2Cc2c[nH]cn2)n1 (centres undefined); -25.9
Cc1noc(C(C)C)c1C(=O)NCCN1CCCCCC1=O; -7.87
CCc1nc(C2CCCN2C(=O)c2ccc3c(c2)nc(C)n3C)no1 (centres undefined); -6.99
C[C@@H]1CN(C(=O)c2cccs2)C[C@]12CCN(CCN(C)C)C2=O; -8.48
CCOc1ncccc1NC(=O)NC1CCCN(c2ncccn2)C1 (centres undefined); -4.97
Cc1ccc(-c2nc(CCNC(=O)NC3CCN(C)CC3)co2)cc1; -12.9
O=C(c1ccc(OCC2CC2)nc1)N1CCCC(n2cncn2)C1 (centres undefined); -4.21
CC(C)c1cc(N2CCC(N)CC2)n2nccc2n1; -1.59
Cc1cccc(CN2CCC3(CCN(c4ccccn4)C3)C2=O)c1 (centres undefined); -5.26
O=C(NCCO)c1ccn(-c2ccc3ccccn23)n1; -0.759

// moving on: another record for Percent Effect
Prompt line: Looking for the measured Percent Effect of CCN(CC)C(=O)C(c1ccccc1)N1CCn2c(C)nnc2C1 (centres undefined) , can you help?
Response line: -4.71

The reported measurements were obtained from ChEMBL document CHEMBL3988442.
